readout_name: MIC (µg/mL)
Quick note: give the figure in µg/mL, leave out the unit.

Task: Tell me reported MIC for `CC(=O)OCC1=C(C(=O)O)N2C(=O)[C@@H](NC(=O)Cc3cccs3)[C@H]2SC1` , tested with Bordetella bronchiseptica.
Output: 8

Task: State its MIC on Bordetella bronchiseptica: `O=C(Cc1cccs1)N[C@@H]1C(=O)N2C(C(=O)[O-])=C(C[n+]3ccccc3)CS[C@H]12`
Output: 32

Task: API: value(readout=MIC, system=Bordetella bronchiseptica) for record `NCc1ccccc1CC(=O)N[C@@H]1C(=O)N2C(C(=O)O)=C(CSc3nnnn3CC(=O)O)CS[C@H]12`
Output: 125

Task: // lookup MIC | system=Bordetella bronchiseptica | key= `Cc1nnc(SCC2=C(C(=O)O)N3C(=O)[C@@H](NC(=O)Cn4cnnn4)[C@H]3SC2)s1`
Output: 125

====

test system: Proteus mirabilis; assay: Intramuscular treatment of systemically infected mice; format: in vivo; conditions: im, 3.5 h, Proteus mirabilis strain 1, challenge 7×10^6 -9×10^6, treated 1 and 3.5 hours after infection, read-out: PD50 /treatment
readout_name: ED50
Answer with the value and then the unit.

Task: What ED50 appears in the records for this molecule with Proteus mirabilis? O=C(Cc1cccs1)N[C@@H]1C(=O)N2C(C(=O)[O-])=C(C[n+]3ccccc3)CS[C@H]12 [Cephaloridine]
Output: 19 mg/kg

Task: # value lookup — system Proteus mirabilis, readout ED50, item NCc1ccccc1CC(=O)N[C@@H]1C(=O)N2C(C(=O)O)=C(CSc3nnnn3CC(=O)O)CS[C@H]12 [Example 1]
Output: 1.4 mg/kg

Task: Query for Proteus mirabilis: what ED50 does the record show for CC(=O)OCC1=C(C(=O)O)N2C(=O)[C@@H](NC(=O)Cc3cccs3)[C@H]2SC1 [Cephalothin] ?
Output: 41 mg/kg

Task: Form field - read-out: ED50; system: Proteus mirabilis; submitted item: Cc1nnc(SCC2=C(C(=O)O)N3C(=O)[C@@H](NC(=O)Cn4cnnn4)[C@H]3SC2)s1 [Cefazolin]
Output: 16 mg/kg

====

system: Enterobacter cloacae; experiment: Effect of inoculum size on susceptibility of Enterobacteriaceae; conditions: read-out: Minimum Inhibitory Concentration, Enterobacter cloacae strain 5, A, Inoculum of 10^2 organisms
readout_name: MIC (µg/mL)
Please state the figure in µg/mL; there is no need to write the unit.

Task: Lookup: MIC / Enterobacter cloacae / `O=C(Cc1cccs1)N[C@@H]1C(=O)N2C(C(=O)[O-])=C(C[n+]3ccccc3)CS[C@H]12`
Output: 63

Task: Under Enterobacter cloacae: MIC value of `Cc1nnc(SCC2=C(C(=O)O)N3C(=O)[C@@H](NC(=O)Cn4cnnn4)[C@H]3SC2)s1` ?
Output: 8

Task: Could you share what MIC was measured for `NCc1ccccc1CC(=O)N[C@@H]1C(=O)N2C(C(=O)O)=C(CSc3nnnn3CC(=O)O)CS[C@H]12` , tested on Enterobacter cloacae?
Output: 8

Task: For Enterobacter cloacae, provide MIC of `CC(=O)OCC1=C(C(=O)O)N2C(=O)[C@@H](NC(=O)Cc3cccs3)[C@H]2SC1` please.
Output: 16

====

For each entry below, report its MIC value.
tested on: Escherichia coli; assay: Effect of inoculum size on susceptibility of Enterobacteriaceae; settings: read-out: Minimum Inhibitory Concentration, Escherichia coli strain 3, A, Inoculum of 10^2 organisms
Give the value, in units of µg/mL, as a plain number.

Task: Recall the recorded MIC for `O=C(Cc1cccs1)N[C@@H]1C(=O)N2C(C(=O)[O-])=C(C[n+]3ccccc3)CS[C@H]12` with Escherichia coli and state it.
Output: 2

Task: Return MIC measured with Escherichia coli given this compound: `Cc1nnc(SCC2=C(C(=O)O)N3C(=O)[C@@H](NC(=O)Cn4cnnn4)[C@H]3SC2)s1`
Output: 1

Task: Please provide the recorded MIC for `NCc1ccccc1CC(=O)N[C@@H]1C(=O)N2C(C(=O)O)=C(CSc3nnnn3CC(=O)O)CS[C@H]12` , tested on Escherichia coli.
Output: 0.25

Task: MIC of `CC(=O)OCC1=C(C(=O)O)N2C(=O)[C@@H](NC(=O)Cc3cccs3)[C@H]2SC1` on Escherichia coli?
Output: 4

====

test system: Enterobacter aerogenes; experiment: Effect of inoculum size on susceptibility of Enterobacteriaceae; details: Klebsiella aerogenes, read-out: Minimum Inhibitory Concentration, Enterobacter aerogenes strain 1; A, Inoculum of 10^2 organisms
readout_name: MIC (µg/mL)
Only the number, expressed in µg/mL, is required.

Task: Item `NCc1ccccc1CC(=O)N[C@@H]1C(=O)N2C(C(=O)O)=C(CSc3nnnn3CC(=O)O)CS[C@H]12` has what recorded MIC?
Output: 1

Task: Fill in: MIC of `CC(=O)OCC1=C(C(=O)O)N2C(=O)[C@@H](NC(=O)Cc3cccs3)[C@H]2SC1` is ___
Output: 32

Task: Please report the recorded MIC for `Cc1nnc(SCC2=C(C(=O)O)N3C(=O)[C@@H](NC(=O)Cn4cnnn4)[C@H]3SC2)s1` .
Output: 16

Task: Given the entry `O=C(Cc1cccs1)N[C@@H]1C(=O)N2C(C(=O)[O-])=C(C[n+]3ccccc3)CS[C@H]12` , report its measured MIC.
Output: 63

====

Would you kindly list MIC for each of these molecules?
system: Proteus vulgaris; experiment: Effect of inoculum size on susceptibility of Enterobacteriaceae; conditions: read-out: Minimum Inhibitory Concentration, Proteus vulgaris strain 4, A, Inoculum of 10^2 organisms
Report the value in mg/L with no unit label.

Task: Param item = `O=C(Cc1cccs1)N[C@@H]1C(=O)N2C(C(=O)[O-])=C(C[n+]3ccccc3)CS[C@H]12` ; retrieve measured MIC.
Output: 8

Task: Name the recorded MIC for `NCc1ccccc1CC(=O)N[C@@H]1C(=O)N2C(C(=O)O)=C(CSc3nnnn3CC(=O)O)CS[C@H]12` .
Output: 1

Task: Quick one: MIC of `CC(=O)OCC1=C(C(=O)O)N2C(=O)[C@@H](NC(=O)Cc3cccs3)[C@H]2SC1` ?
Output: 16

Task: // query MIC value for entry `Cc1nnc(SCC2=C(C(=O)O)N3C(=O)[C@@H](NC(=O)Cn4cnnn4)[C@H]3SC2)s1`
Output: 8

====

test system: Proteus rettgeri; experiment: Intramuscular treatment of systemically infected mice; assay type: in vivo; details: Providencia rettgeri, im, Proteus rettgeri strain 4, challenge 2×10^6 -3×10^6, treated 1 and 3.5 hours after infection, read-out: PD50 /treatment
Exercise: for every item that follows, state its recorded ED50.
Quick reminder: number only, in mg/kg, skip the unit.

Task: Fill in: ED50 of `NCc1ccccc1CC(=O)N[C@@H]1C(=O)N2C(C(=O)O)=C(CSc3nnnn3CC(=O)O)CS[C@H]12` is ___
Output: 2.4

Task: Which ED50 is reported for this compound? `CC(=O)OCC1=C(C(=O)O)N2C(=O)[C@@H](NC(=O)Cc3cccs3)[C@H]2SC1`
Output: 140

Task: Returns the measured ED50 for the input compound. Input: `O=C(Cc1cccs1)N[C@@H]1C(=O)N2C(C(=O)[O-])=C(C[n+]3ccccc3)CS[C@H]12`
Output: 66

Task: Would you mind telling me what ED50 value was observed for `Cc1nnc(SCC2=C(C(=O)O)N3C(=O)[C@@H](NC(=O)Cn4cnnn4)[C@H]3SC2)s1` ?
Output: 9.5

====

test: Stability in solution, 0.005 M phosphate buffer pH 7.4, 37° C.; format: physicochemical; details: pH 7.4 and 37° C.
readout_name: half-life

Task: Could you share which half-life value was measured for NCc1ccccc1CC(=O)N[C@@H]1C(=O)N2C(C(=O)O)=C(CSc3nnnn3CC(=O)O)CS[C@H]12 [Example 1] ?
Output: > 24 h

====

Test system: Proteus vulgaris
Assay: Minimum growth inhibitory and bactericidal concentrations for Enterobacteriaceae
Type: cell-based
Conditions: Proteus vulgaris, Proteus vulgaris strain 4; inoculum 10^4 cells; read-out: MIC, Minimum growth inhibitory concentration
Excerpt: Miscellaneous. Methods for determining bactericidal activity and susceptibility to cell-free β-lactamase were those previously used; Leitner et al., BL-S640, A Cephalosporin With a Broad Spectrum of Antibacterial Activity: Properties in vitro, Antimicrob. Agents Chemother. 7:298-305 (1975). *MIC, Minimum growth inhibitory concentration; MBC, minimum bactericidal concentration; expressed as micrograms per milliliter. The inoculum was […]
So I've got a bunch of compounds here, and I need their MIC values.

Task: Look up MIC: `CC(=O)OCC1=C(C(=O)O)N2C(=O)[C@@H](NC(=O)Cc3cccs3)[C@H]2SC1`
Output: 8 µg/mL

Task: Which value of MIC has been reported for `NCc1ccccc1CC(=O)N[C@@H]1C(=O)N2C(C(=O)O)=C(CSc3nnnn3CC(=O)O)CS[C@H]12` in the records?
Output: 0.5 µg/mL

Task: # MIC lookup, item `Cc1nnc(SCC2=C(C(=O)O)N3C(=O)[C@@H](NC(=O)Cn4cnnn4)[C@H]3SC2)s1`
Output: 8 µg/mL

Task: Quick one: MIC for `O=C(Cc1cccs1)N[C@@H]1C(=O)N2C(C(=O)[O-])=C(C[n+]3ccccc3)CS[C@H]12` ?
Output: 8 µg/mL
